Data origin: PubChem BioAssay AID1456

# TESTED_ON: Solute carrier family 12 member 5 (Homo sapiens) (UniProt Q9H2X9)
# Sequence (Q9H2X9 whole entry, looked up): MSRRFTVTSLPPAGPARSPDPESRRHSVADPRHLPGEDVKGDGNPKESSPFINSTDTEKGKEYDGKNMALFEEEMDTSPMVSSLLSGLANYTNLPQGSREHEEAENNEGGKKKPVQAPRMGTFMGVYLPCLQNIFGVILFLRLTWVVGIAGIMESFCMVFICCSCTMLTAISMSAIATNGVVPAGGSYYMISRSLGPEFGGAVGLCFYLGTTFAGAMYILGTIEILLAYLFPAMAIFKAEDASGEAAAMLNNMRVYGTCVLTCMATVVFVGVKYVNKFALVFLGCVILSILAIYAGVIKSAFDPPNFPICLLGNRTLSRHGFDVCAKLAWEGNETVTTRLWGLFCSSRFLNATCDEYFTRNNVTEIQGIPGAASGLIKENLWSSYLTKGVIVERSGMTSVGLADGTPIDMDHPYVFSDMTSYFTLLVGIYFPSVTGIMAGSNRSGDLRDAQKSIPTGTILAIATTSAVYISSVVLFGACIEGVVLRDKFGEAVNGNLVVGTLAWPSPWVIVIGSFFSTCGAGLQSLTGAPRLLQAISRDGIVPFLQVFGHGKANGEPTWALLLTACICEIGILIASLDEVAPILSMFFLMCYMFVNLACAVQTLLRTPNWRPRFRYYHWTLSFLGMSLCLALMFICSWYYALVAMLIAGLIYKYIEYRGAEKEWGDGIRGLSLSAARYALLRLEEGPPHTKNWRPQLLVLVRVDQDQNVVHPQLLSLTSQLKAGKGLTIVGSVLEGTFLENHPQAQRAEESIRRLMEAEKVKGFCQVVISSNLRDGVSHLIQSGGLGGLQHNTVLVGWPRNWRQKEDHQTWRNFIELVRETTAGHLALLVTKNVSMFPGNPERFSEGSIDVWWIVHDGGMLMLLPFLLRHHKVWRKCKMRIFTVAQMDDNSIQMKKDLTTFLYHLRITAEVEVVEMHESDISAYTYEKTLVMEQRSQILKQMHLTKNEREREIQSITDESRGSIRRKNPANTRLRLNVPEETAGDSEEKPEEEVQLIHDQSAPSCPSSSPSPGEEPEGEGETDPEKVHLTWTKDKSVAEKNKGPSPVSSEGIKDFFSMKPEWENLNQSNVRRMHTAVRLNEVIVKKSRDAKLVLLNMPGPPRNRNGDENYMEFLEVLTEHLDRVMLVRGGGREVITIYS
# ASSAY_SUMMARY: modulation of human KCC2 ion transport – cell-based, HEK293 KCC2, FluoZin-2 fluorescence, MLSMR, primary screen (AID 1456);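 note: slope of fluorescence scaled to starting intensity during 10 to 20 s after thallium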
# RECORDED_CONDITIONS: KCC2 cells, thallium flux FluoZin-2 fluorescence; at 10 µM
The whole screen tested about 190,000 compounds, of which about 4,100 (2.2%) were called active.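 Rule for the calls: active = thallium flux slope and its plate-corrected score both differing from the plate sample mean at a set confidence after two filtering rounds, in either direction; inactive = the rest.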 Many of the other results were omitted from the sample, so actives are more common in it than they were.
Outcomes you can answer with include only these: active, inactive

Reference set, count: 2
>>> cat("O=C(Cc1ccccc1)Nc1c(Cl)ccc2nsnc12")
"inactive"
>>> cat("COc1ccc(OC)c2sc(NC(=O)C3COc4ccccc4O3)nc12 (stereo unspecified)")
"inactive"

query: Can you look up the reported call for CCOCC(=O)Nc1ncc(S(=O)(=O)c2ccc([N+](=O)[O-])cc2)s1 for me?
result: inactive

query: # lookup: test call for Cc1csc(=Nc2ccccc2)n1CCO
result: inactive

query: What did this assay record as the result for COC(=O)C1=C(C)NC(=O)/C1=C/c1ccc(CNS(=O)(=O)c2ccc(C)cc2)o1 ?
result: inactive

query: Could you kindly confirm the outcome this assay logged for Cc1cs/c(=N\N=C\c2ccc(O)cc2)n1Cc1ccco1 ?
result: active

---

# TESTED_ON: Solute carrier family 12 member 5 (Homo sapiens) (UniProt Q9H2X9)
# ASSAY_SUMMARY: modulation of human KCC2 ion transport – cell-based, HEK293 KCC2, FluoZin-2 fluorescence, MLSMR, primary screen (AID 1456);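 note: slope of fluorescence scaled to starting intensity during 10 to 20 s after thallium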
# RECORDED_CONDITIONS: KCC2 cells, thallium flux FluoZin-2 fluorescence; at 10 µM
The campaign covered roughly 190,000 compounds. About 4,100 (2.2%) were called active. The sample as a whole holds a higher share of actives than the screen did.
PARAMETER_MEASURED: B-score of Tl+ flux slope (higher = more flux/activation; lower = inhibition)
Give bare numbers.

Solved cases (2 shown):
>>> result("Cc1onc(-c2ccc(Cl)cc2)c1-c1ccnn1S(=O)(=O)c1ccc(Cl)cc1")
0.0713
>>> result("COc1cc2c(cc1/C=C1/NC(=O)N(c3ccccc3)C1=O)OCO2")
0.747

For each entry beneath this line, provide reported B-score of Tl+ flux slope (higher = more flux/activation; lower = inhibition).
1. CCOC(=O)c1c(C)oc(C)c(C(=O)OCC)c1=O
2. COc1ccc(NC(=O)c2ccccc2[N+](=O)[O-])cc1OC
3. COc1cc(OC)cc(/C(N)=N/O)c1
4. COc1cccc(NC(=O)c2ccc(S(=O)(=O)N(C)C)cc2)c1
5. O=C(Nc1nnc(-c2ccc(Cl)cc2)o1)c1ccccc1Br

result:
-0.18
4.22
-0.654
1.09
35.2

Quick batch: B-score of Tl+ flux slope (higher = more flux/activation; lower = inhibition) for everything below.
1. S=c1[nH]nc2c3c4c(sc3ncn12)CCCC4
2. COc1ccc(C(=O)NNC(=S)NC(=O)c2ccccc2[N+](=O)[O-])cc1

result:
1: 6.7; 2: 1.61

For every item in the list below, what is its measured B-score of Tl+ flux slope (higher = more flux/activation; lower = inhibition)?
1. CC(C)(C)c1ccc(CCC2OCC(CN3CCOCC3)O2)cc1 (stereo not drawn)
2. Cn1c(SCC(=O)N2CCOCC2)nnc1-c1ccc2ncccc2c1
3. O=C(Nc1cccc(Cl)c1)Nc1nnc(-c2ccccc2)o1

result:
1: 0.742; 2: -0.0283; 3: 3.17
